Answer each item with its documented Ablum 120: Area.
# Test system: in vitro model of the blood brain barrier (brain capillary endothelial cells co-cultured with glial cells)
# experimental_details: In vitro BBB model: passage of p97 tryptic digest peptides, LC-MS/MS peak areas in luminal and abluminal compartments
# Format: in vitro ADME, rat
# cond: tryptic peptides, abluminal compartment, 120 minutes, 4 micron pore size, LC-MS/MS peak area
Answers are plain numbers.

residue_codes	readout_kind	numeric_readout
DLLFKDSTSELVPIATQTYEAWLGHEYLHAMK [tryptic peptide fragment of human p97]	Ablum 120: Area	0.00E+00
DSSHAFTLDELRGK [tryptic peptide fragment of human p97]	Ablum 120: Area	2.37E+07
LCRGDSSGEGVCDK [tryptic peptide fragment of human p97]	Ablum 120: Area	5.97E+05
TVGWNVPVGYLVESGR [tryptic peptide fragment of human p97]	Ablum 120: Area	1.38E+07
GDSSGEGVCDKSPLER [tryptic peptide fragment of human p97]	Ablum 120: Area	2.34E+09
ADTDGGLIFRLLNEGQR [tryptic peptide fragment of human p97]	Ablum 120: Area	5.53E+06
MFDSSNYHGQDLLFKDATVR [tryptic peptide fragment of human p97]	Ablum 120: Area	0.00E+00
NYPSSLCALCVGDEQGR [tryptic peptide fragment of human p97]	Ablum 120: Area	1.09E+08

Consider the following items and state reported Ablum 120: Area for each.
1. AVSDYFGGSCVPGAGETSYSESLCR [tryptic peptide fragment of human p97]
2. EHGLKPVVGEVYDQEVGTSYYAVAVVRR [tryptic peptide fragment of human p97]
3. IQAEQVDAVTLSGEDIYTAGK [tryptic peptide fragment of human p97]

# output
1. 7.98E+08
2. 2.62E+07
3. 0.00E+00
